- target_or_system: SMYD3 (Homo sapiens (Human))
- Sequence (Q9H7B4 whole entry): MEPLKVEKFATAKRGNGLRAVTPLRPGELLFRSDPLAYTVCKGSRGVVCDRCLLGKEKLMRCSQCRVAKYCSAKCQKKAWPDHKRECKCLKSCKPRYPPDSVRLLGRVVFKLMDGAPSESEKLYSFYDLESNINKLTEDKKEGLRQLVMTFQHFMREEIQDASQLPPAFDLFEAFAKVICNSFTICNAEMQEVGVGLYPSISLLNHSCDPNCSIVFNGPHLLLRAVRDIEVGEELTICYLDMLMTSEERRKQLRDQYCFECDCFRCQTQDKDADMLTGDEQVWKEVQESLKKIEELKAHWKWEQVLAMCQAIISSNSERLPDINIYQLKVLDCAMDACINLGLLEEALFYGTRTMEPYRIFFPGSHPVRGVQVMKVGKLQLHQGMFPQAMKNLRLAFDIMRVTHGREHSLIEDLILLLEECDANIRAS
- experimental_protocol: SMYD3 cell assay (Trimethyl-MEKK2 In-Cell Western in 293T/17 cells)
- Assay type: cell-based
- details: Table 2A; read-out: SMYD3 Cell IC50
pIC50: −log10 of the molar value.
Would you please tag the item YES when its pIC50 is 7 or above, and NO when it is below?

Known results for compounds:
| compound | label_class |
| --- | --- |
| O=C(N[C@H]1C[C@H]2CC[C@@H](C1)N2S(=O)(=O)CC1CCNCC1)c1cc(C2CC2)on1 [Cpd. No. 543] | YES |
| CN(C)CCNCCCS(=O)(=O)N1[C@@H]2CC[C@H]1C[C@@H](NC(=O)c1cc(C3CC3)on1)C2 [compound 590] | NO |

Next compound, please.
q: Is it the case that C[C@H]1C[C@@H](NC(=O)c2cc(C3CC3)on2)CCN1S(=O)(=O)c1ccc(C(C)(C)N)cc1 [Cpd. No. 541] has pIC50 reaching or exceeding 7?
a: YES
